Kindly supply the reported GI50 values for the records listed here.
- Tested on: KARPAS-422 (EZH2 Y641N mutation)
- Method description: Cell growth inhibition test, KARPAS-422
- Assay type: cell-based
- Experimental context: KARPAS-422, culture time 7 days; read-out: Cell growth inhibitory activity (GI50, nM) KARPAS-422 (EZH2 Y641N mutation)
Answers are plain numbers, in nM.

Here is how some compounds turned out for GI50.
Cc1cc(C)c(CN2CCc3c(C)c4c(c(Cl)c3C2=O)OC(C)([C@H]2CC[C@H](N(C)C)CC2)O4)c(=O)[nH]1 (single isomer, unassigned) [Compound 6] | 310
Cc1cc(C)c(CN2CCc3c(C)c4c(c(Cl)c3C2=O)OC(C)([C@H]2CC[C@H](N(C)C)CC2)O4)c(=O)[nH]1 (single isomer, unassigned) [Compound 5] | 2.4

Next up:
// returns reported GI50 for input Cc1cc(C)c(CN2CCc3c(C)c4c(c(C)c3C2=O)OC(C)([C@H]2CC[C@H](N(C)C)CC2)O4)c(=O)[nH]1 (single isomer, unassigned) [Compound 40]
1.8

---

- System under test: EZH2 (Homo sapiens)
- Sequence (Q15910 whole entry): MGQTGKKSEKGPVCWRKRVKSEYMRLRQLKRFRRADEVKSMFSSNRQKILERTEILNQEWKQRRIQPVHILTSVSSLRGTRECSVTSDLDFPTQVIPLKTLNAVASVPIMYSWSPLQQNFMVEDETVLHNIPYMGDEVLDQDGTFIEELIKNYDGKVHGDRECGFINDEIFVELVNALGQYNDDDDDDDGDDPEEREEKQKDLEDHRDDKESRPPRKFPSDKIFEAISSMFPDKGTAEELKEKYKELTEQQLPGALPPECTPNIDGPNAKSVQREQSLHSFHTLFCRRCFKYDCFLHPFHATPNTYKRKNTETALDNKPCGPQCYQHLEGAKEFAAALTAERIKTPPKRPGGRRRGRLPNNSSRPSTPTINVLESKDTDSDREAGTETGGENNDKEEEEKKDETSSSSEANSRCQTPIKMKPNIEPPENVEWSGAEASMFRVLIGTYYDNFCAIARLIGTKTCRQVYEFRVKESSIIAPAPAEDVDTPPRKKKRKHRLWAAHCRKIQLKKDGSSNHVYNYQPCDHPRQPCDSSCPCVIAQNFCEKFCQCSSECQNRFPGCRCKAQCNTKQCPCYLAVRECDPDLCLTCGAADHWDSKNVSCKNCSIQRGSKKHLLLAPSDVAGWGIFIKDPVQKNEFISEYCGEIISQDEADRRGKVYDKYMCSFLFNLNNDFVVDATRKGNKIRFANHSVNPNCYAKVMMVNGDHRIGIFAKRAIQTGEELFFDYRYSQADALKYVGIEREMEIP
- Sequence (O75530 whole entry partner): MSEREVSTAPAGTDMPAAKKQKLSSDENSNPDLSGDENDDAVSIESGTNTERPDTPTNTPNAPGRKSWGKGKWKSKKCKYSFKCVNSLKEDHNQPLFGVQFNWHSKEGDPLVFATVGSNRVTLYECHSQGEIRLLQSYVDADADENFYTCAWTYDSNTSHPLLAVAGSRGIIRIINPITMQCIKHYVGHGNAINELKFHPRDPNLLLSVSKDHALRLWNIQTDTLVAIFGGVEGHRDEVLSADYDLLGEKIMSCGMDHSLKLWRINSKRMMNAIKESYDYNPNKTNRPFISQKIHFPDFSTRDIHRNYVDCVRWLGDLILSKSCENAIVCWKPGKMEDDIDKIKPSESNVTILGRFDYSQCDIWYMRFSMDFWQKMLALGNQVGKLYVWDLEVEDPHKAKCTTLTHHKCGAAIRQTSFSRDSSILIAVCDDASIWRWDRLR
- Sequence (Q15022 whole entry partner): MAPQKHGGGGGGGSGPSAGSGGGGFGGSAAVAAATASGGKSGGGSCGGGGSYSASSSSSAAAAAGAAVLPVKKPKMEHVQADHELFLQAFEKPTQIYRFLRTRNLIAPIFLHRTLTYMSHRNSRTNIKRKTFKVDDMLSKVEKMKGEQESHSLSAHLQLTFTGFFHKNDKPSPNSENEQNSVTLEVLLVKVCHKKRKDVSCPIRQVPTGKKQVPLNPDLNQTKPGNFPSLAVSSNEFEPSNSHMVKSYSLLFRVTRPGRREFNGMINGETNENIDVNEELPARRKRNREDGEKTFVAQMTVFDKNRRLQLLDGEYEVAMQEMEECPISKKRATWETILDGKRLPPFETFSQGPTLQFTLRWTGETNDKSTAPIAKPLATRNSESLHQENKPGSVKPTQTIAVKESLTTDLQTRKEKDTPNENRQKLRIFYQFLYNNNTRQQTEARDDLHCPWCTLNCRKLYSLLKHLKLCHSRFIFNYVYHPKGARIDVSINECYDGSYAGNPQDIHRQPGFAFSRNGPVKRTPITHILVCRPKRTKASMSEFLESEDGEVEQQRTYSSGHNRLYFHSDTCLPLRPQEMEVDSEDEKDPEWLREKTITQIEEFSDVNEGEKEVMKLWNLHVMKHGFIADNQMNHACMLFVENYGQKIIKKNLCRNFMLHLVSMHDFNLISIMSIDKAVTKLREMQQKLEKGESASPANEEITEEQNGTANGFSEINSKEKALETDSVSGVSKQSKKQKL
- Sequence (Q09028 whole entry partner): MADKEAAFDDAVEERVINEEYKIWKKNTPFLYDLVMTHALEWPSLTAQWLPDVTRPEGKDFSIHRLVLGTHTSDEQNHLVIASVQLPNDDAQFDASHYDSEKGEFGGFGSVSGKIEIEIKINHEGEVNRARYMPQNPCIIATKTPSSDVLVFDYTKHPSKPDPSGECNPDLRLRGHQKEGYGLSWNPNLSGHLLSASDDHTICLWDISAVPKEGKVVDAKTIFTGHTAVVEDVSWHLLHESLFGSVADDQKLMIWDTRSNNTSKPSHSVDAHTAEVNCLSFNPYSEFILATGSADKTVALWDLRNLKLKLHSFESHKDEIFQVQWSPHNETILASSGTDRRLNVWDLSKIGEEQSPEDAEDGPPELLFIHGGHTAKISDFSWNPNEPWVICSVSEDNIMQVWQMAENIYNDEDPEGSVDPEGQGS
- Sequence (Q6ZN18 whole entry partner): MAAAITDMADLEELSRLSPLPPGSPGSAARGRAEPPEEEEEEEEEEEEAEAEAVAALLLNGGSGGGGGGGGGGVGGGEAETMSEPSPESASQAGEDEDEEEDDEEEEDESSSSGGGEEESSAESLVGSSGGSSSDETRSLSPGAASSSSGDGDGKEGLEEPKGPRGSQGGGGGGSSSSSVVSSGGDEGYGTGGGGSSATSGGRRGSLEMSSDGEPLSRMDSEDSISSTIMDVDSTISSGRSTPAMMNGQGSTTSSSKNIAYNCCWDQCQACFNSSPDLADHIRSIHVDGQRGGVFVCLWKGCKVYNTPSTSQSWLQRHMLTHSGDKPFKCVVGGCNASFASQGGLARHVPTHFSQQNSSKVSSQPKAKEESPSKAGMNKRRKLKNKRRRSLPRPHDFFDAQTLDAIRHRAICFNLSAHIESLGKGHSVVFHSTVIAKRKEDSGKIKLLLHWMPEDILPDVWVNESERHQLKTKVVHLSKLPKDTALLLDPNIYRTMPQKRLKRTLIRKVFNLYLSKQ
- Method description: Inhibitory activity against EZH2 methyltransferase (radiometric scintillation proximity assay);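 further: Read-out is substrate peptide methylation, captured on streptavidin-coated SPA beads and counted by scintillation, with the reaction run in Tris-HCl buffer at pH 8.0 containing 1% DMSO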
- Experimental context: Enzyme inhibitory activity (IC50, nM) EZH2, 2.3 nmol/L enzyme, 90 minutes, room temperature
Kindly supply the reported IC50 values for the records listed here.

Here is how some compounds turned out for IC50.
Cc1cc(C)c(CN2CCc3c(C)c4c(c(Cl)c3C2=O)OC(C)([C@H]2CC[C@H](N(C)C)CC2)O4)c(=O)[nH]1 (stereo partly shown) [Compound 4] | 2.6 nM
COc1cc(C)[nH]c(=O)c1CN1CCc2c(Cl)c3c(c(C)c2C1=O)OC(C)([C@H]1CC[C@H](N(C)C)CC1)O3 (stereo partly shown) | 1.8 to 2.3 nM
CCCc1cc(C)[nH]c(=O)c1CN1CCc2c(Cl)c3c(c(C)c2C1=O)OC(C)([C@H]1CC[C@H](N(C)C)CC1)O3 (stereo partly shown) | 3.2 nM
Cc1cc(C)c(CN2CCc3c(Cl)c4c(c(C)c3C2=O)OC(C)([C@H]2CC[C@@H](N(C)C)CC2)O4)c(=O)[nH]1 (stereo partly shown) | 3.2 nM
Cc1cc(C)c(CN2CCc3c(Cl)c4c(c(C)c3C2=O)OC(C)(C2CCN(C)CC2)O4)c(=O)[nH]1 (stereo not shown) | 5 nM

For each listed entry, give its IC50.
1. Cc1cc(C)c(CN2CCc3c(Cl)c4c(c(C)c3C2=O)OC(C)(C[C@H]2CC[C@H](N(C)C)CC2)O4)c(=O)[nH]1 (stereo partly shown)
2. CN[C@H]1CC[C@H](C2(C)Oc3c(C)c4c(c(Br)c3O2)CCN(Cc2c(C)cc(C)[nH]c2=O)C4=O)CC1 (stereo partly shown)
3. Cc1cc(C)c(CN2CCc3cc4c(cc3C2=O)OC(C)([C@H]2CC[C@H](N(C)C)CC2)O4)c(=O)[nH]1 (stereo partly shown)
4. Cc1cc(C)c(CN2CCc3c(Cl)c4c(c(C)c3C2=O)OC(C)(C2CCN(CC(F)(F)F)CC2)O4)c(=O)[nH]1 (stereo not shown)

["7.2 nM", "1.6 nM", "7.9 nM", "3.8 nM"]

// returns reported IC50 for input CN[C@H]1CC[C@H](C2(C)Oc3c(C)c4c(c(Cl)c3O2)CCN(Cc2c(C)cc(C)[nH]c2=O)C4=O)CC1 (stereo partly shown)
1.4 nM

---

Kindly supply the reported half-life values for the records listed here.
- Method description: Mouse pharmacokinetics, oral single dose
- Assay type: in vivo
- Experimental context: male, ICR, mouse, plasma, po, 30 mg/kg, mice (ICR, male), oral single dose 30 mg/kg, read-out: Half life T1/2 (converted)
Give bare numbers, in h.

Cc1cc(C)c(CN2CCc3c(Br)c4c(c(C)c3C2=O)OC(C)([C@H]2CC[C@H](N(C)C)CC2)O4)c(=O)[nH]1 (single isomer, unassigned) [Compound 49] | 2.9
Cc1cc(C)c(CNC(=O)c2cc(Cl)c3c(c2C)O[C@@](C)([C@H]2CC[C@H](N(C)C)CC2)O3)c(=O)[nH]1 [Control B] | 1

// returns reported half-life for input CCN(c1cc(-c2ccc(CN3CCOCC3)cc2)cc(C(=O)NCc2c(C)cc(C)[nH]c2=O)c1C)C1CCOCC1 [Control A]
0.6

---

- System: Pfeiffer (EZH2 A677G mutation)
- Method description: Cell growth inhibition test, Pfeiffer
- Format: cell-based
- Experimental context: Homo sapiens, read-out: Cell growth inhibitory activity (GI50, nM) Pfeiffer (EZH2 A677G mutation)
Metric: GI50

Cc1cc(C)c(CN2CCc3c(Br)c4c(c(C)c3C2=O)OC(C)([C@H]2CC[C@H](N(C)C)CC2)O4)c(=O)[nH]1 (stereo partly drawn) [Compound 48] | 0.77 nM
Cc1cc(C)c(CNC(=O)c2cc(Cl)c3c(c2C)O[C@@](C)([C@H]2CC[C@H](N(C)C)CC2)O3)c(=O)[nH]1 [Control B] | 0.57 nM
CN[C@H]1CC[C@H](C2(C)Oc3c(C)c4c(c(Cl)c3O2)CCN(Cc2c(C)cc(C)[nH]c2=O)C4=O)CC1 (stereo partly drawn) | 1.48 nM
CCCc1cc(C)[nH]c(=O)c1CN1CCc2c(C)c3c(c(C)c2C1=O)OC(C)([C@H]1CC[C@H](N(C)C)CC1)O3 (stereo partly drawn) | 6.76 nM

For each listed entry, give its GI50.
1. Cc1cc(C)c(CN2CCc3c(C)c4c(c(C)c3C2=O)OC(C)([C@H]2CC[C@H](N(C)C)CC2)O4)c(=O)[nH]1 (single isomer, unassigned) [Compound 40]
2. COc1cc(C)[nH]c(=O)c1CN1CCc2c(C)c3c(c(C)c2C1=O)OC(C)([C@H]1CC[C@H](N(C)C)CC1)O3 (stereo partly drawn)

1: 0.71 nM; 2: 0.97 to 1.41 nM

---

Kindly supply the reported Residual amount (%) of test compound after 1 hour of reaction, Mouse values for the records listed here.
- Method description: Metabolic stability in mouse liver microsomes
- Type: in vitro ADME
- Experimental context: 5 μM compound, 1 mg/mL mouse liver microsomes, 37° C., NADPH regenerating system

Here is how some compounds turned out for Residual amount (%) of test compound after 1 hour of reaction, Mouse.
Cc1cc(C)c(CN2CCc3c(C)c4c(c(Cl)c3C2=O)OC(C)([C@H]2CC[C@H](N(C)C)CC2)O4)c(=O)[nH]1 (single isomer, unassigned) [Compound 5] | 78%
Cc1cc(C)c(CN2CCc3c(Br)c4c(c(C)c3C2=O)OC(C)([C@H]2CC[C@H](N(C)C)CC2)O4)c(=O)[nH]1 (stereo partly shown) [Compound 48] | 52%
Cc1cc(C)c(CNC(=O)c2cc(Cl)c3c(c2C)O[C@@](C)([C@H]2CC[C@H](N(C)C)CC2)O3)c(=O)[nH]1 [Control B] | 50%
Cc1cc(C)c(CN2CCc3c(Br)c4c(c(C)c3C2=O)OC(C)([C@H]2CC[C@H](N(C)C)CC2)O4)c(=O)[nH]1 (single isomer, unassigned) [Compound 50] | 54%
Cc1cc(C)c(CN2CCc3c(Cl)c4c(c(C)c3C2=O)OC(C)([C@H]2CC[C@H](N(C)C)CC2)O4)c(=O)[nH]1 (mixture of isomers) [Compound 9] | 56%
C#Cc1c2c(c(C)c3c1OC(C)([C@H]1CC[C@H](N(C)C)CC1)O3)C(=O)N(Cc1c(C)cc(C)[nH]c1=O)CC2 (stereo partly shown) | 85%
Cc1cc(C)c(CN2CCc3c(C)c4c(c(Cl)c3C2=O)OC(C)([C@H]2CC[C@H](N(C)C)CC2)O4)c(=O)[nH]1 (stereo partly shown) [Compound 4] | 79%
C=Cc1c2c(c(C)c3c1OC(C)([C@H]1CC[C@H](N(C)C)CC1)O3)C(=O)N(Cc1c(C)cc(C)[nH]c1=O)CC2 (stereo partly shown) | 61%

For each listed entry, give its Residual amount (%) of test compound after 1 hour of reaction, Mouse.
1. COc1cc(C)[nH]c(=O)c1CN1CCc2c(Cl)c3c(c(C)c2C1=O)OC(C)([C@H]1CC[C@H](N(C)C)CC1)O3 (stereo partly shown)
2. Cc1cc(C)c(CN2CCc3c(C)c4c(c(C)c3C2=O)OC(C)([C@H]2CC[C@H](N(C)C)CC2)O4)c(=O)[nH]1 (stereo partly shown) [Compound 39]
3. Cc1cc(C)c(CN2CCc3c(C)c4c(c(C)c3C2=O)OC(C)([C@H]2CC[C@H](N(C)C)CC2)O4)c(=O)[nH]1 (single isomer, unassigned) [Compound 41]
4. CN[C@H]1CC[C@H](C2(C)Oc3c(C)c4c(c(Cl)c3O2)CCN(Cc2c(C)cc(C)[nH]c2=O)C4=O)CC1 (stereo partly shown)
5. CN[C@H]1CC[C@H](C2(C)Oc3c(C)c4c(c(Br)c3O2)CCN(Cc2c(C)cc(C)[nH]c2=O)C4=O)CC1 (stereo partly shown)

1. 79%
2. 80%
3. 63%
4. 100%
5. 64%

These entries and their values trace back to patent US12344618B2.
